All figures here come from the supplement of paper PMC9170038.

test system: MS2 coat protein; assay: apparent KD of MS2 coat protein; designed switch direction (-1 OFF switch, 1 ON switch): 1; higher = weaker reporter binding; conditions: input ligand: none
Assay Endpoint: apparent KD of MS2 coat protein
Phrase the answer as number then unit, nothing more needed.

Past entries and their recorded results:
ACAUUUAGCUCUUGCACAUGAGGAUCACCCAUGUUCGGUUCACAGGAUAUCUAGUCAAACGGGCUGGAGAAGGGUGGCAGGAGC [Islainon] (Eterna round: R96, puzzle: Same State NG 3); 289 nM
AGCUAUUAAUCAGGAUAUAGGGACAUGAGGAUCACCCAUGUAUACAUGAUGAAAUGUGAUCACGUCUAGAAGGGAUUACUAACA [SameState NG2 #40] (Eterna round: R96, puzzle: Same State NG 2); 134 nM
UACCGCGCAGAUGCGCAACAUGAGGAUCACCCAUGUGGCACACAGGAUAUCCUGAACAGCUAUUAGGAGAAGGGUGAAGGCCUC [Sotetelequ] (Eterna round: R96, puzzle: Same State NG 3); 78.3 nM
AUUGCUAGCGCAGGAUAUGAUGCGAAAAUUGCGUCAGAAGGGUGUACUCUCUCAUUGCGGGAGGACAUGAGGAUCACCCAUGUC [SameState NG1 #83] (Eterna round: R96, puzzle: Same State NG 1); 83.3 nM
AGCUAUCGAAAACGAUAGCAUAAGCAUGUACAUGAGGAUCACCCAUGUCAUGUACAAGCUUUUUGCUCGUCUUAAAA [JL zipper 27] (Eterna round: R96, puzzle: Sensor for hsa-mir-208a); 426 nM

Prompt: Recorded apparent KD of MS2 coat protein for UGGCUCAGACGAGGAUAUAUGCGAUCACAUGAGGAUCACCCAUGUCUCGAGCUUCGGCUCGAGGCAUAGAAGGUGUCUGAGCCA [SSNG2/4-C2] (Eterna round: R96, puzzle: Same State NG 2) with MS2 coat protein, please?
Completion: 145 nM

Prompt: How about this sequence: GUAGCAUACCGAGGAUAUUCAUACAUGAGGAUCACCCAUGUUAUUAUAGGCCGAUUACGGCCUUGGGAGAAGGCGGAAUGCUAC [Xeonanis - 20 Mod28] (Eterna round: R96, puzzle: Same State NG 2)
Completion: 16.1 nM

Prompt: How about this sequence: AAACAUGAGCGAGGAUAUACGGAGGAUCACCCUGUAGAAGGCGCAUGUAAAACAACAUGAGGAUCACCCAUGUCAUGUACAUGA (Eterna round: R96, puzzle: Same State NG 1)
Completion: 33.6 nM

Prompt: How about this sequence: GGAUGAUUAACAGGAUAUCAUUUGUAAAUUCGAUGAGAAGGGUUGAUUACUUACACGACGUGUUACAUGAGGAUCACCCAUGUU [SameState NG1 #6] (Eterna round: R96, puzzle: Same State NG 1)
Completion: 548 nM

---

# apparent KD of MS2 coat protein values compiled below
system: MS2 coat protein; test: apparent KD of MS2 coat protein; designed switch direction (-1 OFF switch, 1 ON switch): -1; higher = weaker reporter binding; conditions: input ligand: microRNA oligo, concentration not stated
Express it in nM; write the number only.

UAUCGGGACUGAGGAUAUUCGUUCGAACACGAAGAAGAAGGUAGUGUCAGGGACAUGAGGAUCACCCAUGUGAUUUCAGUCCUA [JL ViennaUCT Erinle mod 3] (Eterna round: R96, puzzle: Exclusion NG 1); 102
GCACGGAUUGUAGGAUAUCUGUGCGAUUAGCUCAGAGAAGGACACAUGAGGAUCACCCAUGUUACCUCAAUUGGCCUUCCGUGC [Eli exng1 - 031] (Eterna round: R96, puzzle: Exclusion NG 1); 70.7
AUUAUAAAUGUAGGAUAUCUGCACGUGUAGUGCAGAGAAGGACAUGAGGAUCACCCAUGUAGAUCAAUAAUAAUUAAUUUAAUU [ENG1/5-B3] (Eterna round: R96, puzzle: Exclusion NG 1); 33.4
AUCCGGCAUGUAGGAUAUGGAUCCGAUUAGGAUCCAGAAGGACAUGAGGAUCACCCAUGUACAUGUAAACAGUCAUCACCGGAC [salish99_ExNG1_r04_201] (Eterna round: R96, puzzle: Exclusion NG 1); 50.2

Prompt: // returns reported apparent KD of MS2 coat protein for input ACAUGAGGAUCACCCAUGUCCGUCUGGUCUGUCUCGGCUGUCGAGGAUAUAGCCCGGUAUCCGCGCUAGAAGGUGGGAGUCGGC [Aenatbe mod 98] (Eterna round: R96, puzzle: Exclusion NG 3)
Completion: 28.9

Prompt: How about this sequence: ACAUGAGGAUCACCCAUGUCCGGCUGGUCCGUUUCGGCUGUCGAGGAUAUAGUUCGGUGUUCGCGCUAGAAGGCGGGAGCUGGC [Aenatbe mod 60] (Eterna round: R96, puzzle: Exclusion NG 3)
Completion: 68.7

Prompt: How about this sequence: CUGCUGGAGUUUCGCUUUGGUCGUACAUGAGGAUCACCCAUGUAGGAUAUGGUAAAAUUCGCCUGCUAGAAGGAUAGAGUGGUC [salish99_ExNG3_r04_620] (Eterna round: R96, puzzle: Exclusion NG 3)
Completion: 38.6

Prompt: How about this sequence: ACAUGAGGAUCACCCAUGUGAAAACAAUGGCUGACUUAGAGAUAGGAUAUAUGUGCAUAUCAAACAUAGAAGGGUCAUUACUGG [Deportation 89 - Jieux - Exclusion NG 3] (Eterna round: R96, puzzle: Exclusion NG 3)
Completion: 34.5

Prompt: How about this sequence: GCAGCAACUCUAAUCAACUAAACAUGAGGAUCACCCAUGUCUCAGGAUAUGGUCUGGAUUACAGGCCAGAAGGGAGAAAGCUGC [Eli exng3 - 043] (Eterna round: R96, puzzle: Exclusion NG 3)
Completion: 11.2
